The following compounds are listed with their measured pEC50 values.
Target: UniProt:P51449
Sequence (P51449 269-508): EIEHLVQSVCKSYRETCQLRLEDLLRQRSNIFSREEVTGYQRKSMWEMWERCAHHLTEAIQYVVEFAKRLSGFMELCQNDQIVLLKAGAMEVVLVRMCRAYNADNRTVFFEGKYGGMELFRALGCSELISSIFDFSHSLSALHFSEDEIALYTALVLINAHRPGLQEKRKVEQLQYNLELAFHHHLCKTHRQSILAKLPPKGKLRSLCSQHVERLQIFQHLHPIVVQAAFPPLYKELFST
Experiment: TR-FRET co-activator D22 interaction with RORγ LBD
Format: biochemical
Settings: 2 hr; read-out: RORγ EC50 D22 co-activator displacement 2 hr
Description: The Time-Resolved Fluorescence Resonance Energy Transfer (TR-FRET) assay kit (Life Technologies) was used to measure compound efficacy to disrupt or enhance ligand-mediated interaction of the co-activator and co-repressor peptides with the purified GST-tagged (i) RORγ LBD or (ii) RORγ LBD. […] The assay was performed as per manufacturer's instructions and TR-FRET was assessed 2 and 20 hours post-assay initiation. […]
pEC50: −log10 of the molar value.

// worked examples, pEC50 included
> print(dat)
                         chemical.structure     measured.on  result
1  CS(=O)(=O)Nc1ccc2c(c1)CCCN2Cc1ccc(C(O)(C(F)(F)F)C(F)(F)F)cc1  UniProt:P51449  < 4.52
2  CC(=O)Nc1ccc2c(c1)CCN2Cc1ccc(C2(O)CCC2)cc1  UniProt:P51449  < 4.52
3  CC(=O)Nc1ccc2c(c1)CCN2Cc1ccc(C(=O)N(C)C)cc1  UniProt:P51449  < 4.52
4  CC(=O)Nc1ccc2c(ccn2Cc2ccc(C(O)(C(F)(F)F)C(F)(F)F)cc2)c1  UniProt:P51449  > 4.52
5  CC(=O)Nc1ccc2c(c1)CCN2Cc1ccc(-c2cc(C)n[nH]2)cc1  UniProt:P51449  < 4.52
6  CS(=O)(=O)Nc1ccc2c(c1)CCC(=O)N2Cc1ccc(C(O)(C(F)(F)F)C(F)(F)F)cc1  UniProt:P51449  < 4.52

Using the record for CC(=O)Nc1ccc2c(c1)CCN2Cc1ccc(C(C)C)cc1 , report its pEC50.
> 4.52

Look at this compound and give its reported pEC50. CC(=O)Nc1ccc2c(c1)CCN2Cc1ccc(C(O)(C(F)(F)F)C(F)(F)F)cc1
> 4.52

Any idea what pEC50 was measured for CC(=O)Nc1ccc2c(c1)CCN2Cc1ccc(C(=O)Nc2ccccc2)cc1 ?
> 4.52

Quick one: pEC50 for CC(=O)Nc1ccc2c(c1)CCCN2Cc1ccc(C(O)(C(F)(F)F)C(F)(F)F)cc1 ?
> 4.52

Looking for the measured pEC50 of CC(=O)Nc1ccc2c(c1)CCC(=O)N2Cc1ccc(C(O)(C(F)(F)F)C(F)(F)F)cc1 , can you help?
< 4.52

Given CC(=O)Nc1ccc2c(c1)CCN2Cc1ccc(C(F)(F)F)cc1 , state its recorded pEC50.
< 4.52

====

Listed below: pEC50 values for each entry.
Biological target: RORα LBD (Homo sapiens (Human), UniProt P35398)
Sequence (P35398 272-510): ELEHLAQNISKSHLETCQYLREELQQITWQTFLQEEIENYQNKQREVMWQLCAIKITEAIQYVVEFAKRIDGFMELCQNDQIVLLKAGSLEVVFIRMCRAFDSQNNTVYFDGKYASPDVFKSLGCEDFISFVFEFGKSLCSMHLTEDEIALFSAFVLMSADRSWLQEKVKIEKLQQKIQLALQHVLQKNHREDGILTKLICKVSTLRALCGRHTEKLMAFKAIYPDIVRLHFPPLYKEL
Experiment: TR-FRET co-activator D22 interaction with RORα LBD
Format: biochemical
Details: 2 hr; read-out: RORα EC50 D22 co-activator displacement 2 hr
Experimental: The Time-Resolved Fluorescence Resonance Energy Transfer (TR-FRET) assay kit (Life Technologies) was used to measure compound efficacy to disrupt or enhance ligand-mediated interaction of the co-activator and co-repressor peptides with the purified GST-tagged (i) RORγ LBD or (ii) RORγ LBD. […] The assay was performed as per manufacturer's instructions and TR-FRET was assessed 2 and 20 hours post-assay initiation. […]
pEC50: −log10 of the molar value.

Consider the following illustrative entries.
> print(dat)
                         chemical.structure  result
1  CC(=O)Nc1ccc2c(c1)CCN2Cc1ccc(C2(O)CCC2)cc1  > 4.52
2  CC(=O)Nc1ccc2c(c1)CCN2Cc1ccc(C(F)(F)F)cc1  < 4.52
3  CC(=O)Nc1ccc2c(c1)CCN2Cc1ccc(C(=O)N(C)C)cc1  < 4.52
4  CC(=O)Nc1ccc2c(c1)CCCN2Cc1ccc(C(O)(C(F)(F)F)C(F)(F)F)cc1  > 4.52
5  CC(=O)Nc1ccc2c(c1)CCC(=O)N2Cc1ccc(C(O)(C(F)(F)F)C(F)(F)F)cc1  < 4.52

Form field: reported pEC50 of CC(=O)Nc1ccc2c(ccn2Cc2ccc(C(O)(C(F)(F)F)C(F)(F)F)cc2)c1
> 4.52

Query (compound): CS(=O)(=O)Nc1ccc2c(c1)CCCN2Cc1ccc(C(O)(C(F)(F)F)C(F)(F)F)cc1 ; field requested: pEC50
> 4.52

Consider the compound shown here: CC(=O)Nc1ccc2c(c1)CCN2Cc1ccc(C(=O)Nc2ccccc2)cc1 What is its recorded pEC50?
< 4.52
